Reported inhibition values follow for various compounds
biological target: RAC-beta serine/threonine-protein kinase (Homo sapiens); details: at 1 µM
Description: GSK_PKIS: AKT2 mean inhibition at 1 uM [Nanosyn]
Report the value in % with no unit label.

COC(=O)c1sc(-n2cnc3cc(OC)c(OC)cc32)cc1OCc1ccccc1C(F)(F)F: 1.5
CC(=O)Nc1cccc(C#Cc2cncnc2Nc2ccc(OCc3cccc(F)c3)c(Cl)c2)c1: 1.24
CN1CCC(n2cnc(-c3ccc(F)cc3)c2-c2ccnc(N)n2)CC1: 0.66
O=S(=O)(CCNCc1ccc(-c2ccc3ncnc(Nc4ccc(OCc5cccc(F)c5)c(Cl)c4)c3c2)o1)c1ccccc1: 3.29

Lab book: inhibition of COc1cccc(-c2c[nH]c3c(N/N=C/c4ccncc4)ncnc23)c1 noted as -0.06

Lab book: inhibition of CCNC(=O)O[C@H]1CN[C@H](C#Cc2cc3ncnc(Nc4ccc(OCc5cccc(F)c5)c(Cl)c4)c3s2)C1 noted as 2.59

Lab book: inhibition of COc1cc2ncn(-c3cc(OCc4ccccc4C(F)(F)F)c(C(=O)N(C)C)s3)c2cc1OC noted as 0.45

Lab book: inhibition of Fc1ccc(-c2nn3ccccc3c2-c2ccncc2)cc1 noted as 1.43

Lab book: inhibition of CNC(=O)c1cc(-c2ccc(F)cc2)cc(-c2ccc(S(=O)(=O)N3CCCC3)cc2)c1N noted as 1.37

Lab book: inhibition of COc1cc(Nc2nccc(Nc3ccc4c(C)n[nH]c4c3)n2)cc(OC)c1OC noted as 1.19

Lab book: inhibition of Nc1nc(-c2ccc(F)cc2)c(-c2ccc3ncccc3n2)s1 noted as 2.19

Lab book: inhibition of CC(C)COC(=O)c1ccc2c(c1)/C(=C/Nc1ccc(S(N)(=O)=O)cc1)C(=O)N2 noted as 1.73

Lab book: inhibition of CCn1c(-c2nonc2N)nc2c(C#CC(C)(C)O)nc(OC[C@H](N)c3ccccc3)cc21 noted as 92

Lab book: inhibition of Fc1ccc(-c2nn3ncccc3c2-c2ccnc(Nc3ccc4c(c3)OCCO4)n2)cc1 noted as 1.14

Lab book: inhibition of c1cc(-c2cnn3nc(N4CCOCC4)ccc23)nc(NC2CC2)n1 noted as 2.75

Lab book: inhibition of CC(C)(CO)CNC(=O)c1ccc2c(c1)/C(=N/Nc1ccc(S(N)(=O)=O)cc1)C(=O)N2 noted as 0.25

Lab book: inhibition of CS(=O)(=O)CCNCc1coc(-c2ccc3ncnc(Nc4ccc(OCc5ccccc5)cc4)c3c2)c1 noted as 1.09

Lab book: inhibition of COc1ccc(CNC(=O)c2ccc(-c3cc(-c4nnc(C)o4)ccc3C)cc2)cc1 noted as 1.2

Lab book: inhibition of CC1=C(C(=O)Nc2cc(Cl)c3[nH]ncc3c2)C(c2ccc(C(F)(F)F)cc2)CC(=O)N1 (centres undefined) noted as 3.66

----------
Target: Serine/threonine-protein kinase D3 (Homo sapiens);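 also: values are mean inhibition figures against PRKD3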
Sequence (whole entry): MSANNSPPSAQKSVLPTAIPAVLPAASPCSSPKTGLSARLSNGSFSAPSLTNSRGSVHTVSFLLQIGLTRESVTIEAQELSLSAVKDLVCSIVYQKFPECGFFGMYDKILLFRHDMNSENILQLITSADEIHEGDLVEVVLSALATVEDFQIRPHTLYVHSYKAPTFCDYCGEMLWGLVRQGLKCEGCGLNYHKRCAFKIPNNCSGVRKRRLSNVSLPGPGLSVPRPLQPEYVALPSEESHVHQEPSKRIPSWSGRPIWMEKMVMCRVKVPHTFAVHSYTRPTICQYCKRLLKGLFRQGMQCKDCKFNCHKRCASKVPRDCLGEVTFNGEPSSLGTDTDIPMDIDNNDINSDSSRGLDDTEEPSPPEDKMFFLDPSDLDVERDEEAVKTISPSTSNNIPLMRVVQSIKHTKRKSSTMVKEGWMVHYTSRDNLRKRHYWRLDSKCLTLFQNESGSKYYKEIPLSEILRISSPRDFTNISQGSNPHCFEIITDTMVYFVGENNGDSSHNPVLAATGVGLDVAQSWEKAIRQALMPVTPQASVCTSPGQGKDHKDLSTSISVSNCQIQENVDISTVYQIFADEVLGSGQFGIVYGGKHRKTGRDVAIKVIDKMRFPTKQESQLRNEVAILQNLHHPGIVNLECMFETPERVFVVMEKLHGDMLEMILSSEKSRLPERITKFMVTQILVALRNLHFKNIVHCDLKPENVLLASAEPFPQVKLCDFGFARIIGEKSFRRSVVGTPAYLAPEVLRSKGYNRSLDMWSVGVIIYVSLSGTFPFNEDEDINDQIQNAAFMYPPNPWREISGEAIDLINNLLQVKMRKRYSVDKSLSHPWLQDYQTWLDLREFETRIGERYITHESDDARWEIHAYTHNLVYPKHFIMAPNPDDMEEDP
Details: at 1 µM
Measure: inhibition (%)
Report the value in % with no unit label.

Examples from the recorded data:
COc1cc2ncn(-c3cc(OCc4ccccc4C(F)(F)F)c(C(=O)N(C)C)s3)c2cc1OC: -0.01
CCc1nn2ncccc2c1-c1ccnc(NC2CC2)n1: 2.57
Fc1ccc(-c2nn3ncccc3c2-c2ccnc(Nc3ccc4c(c3)OCCO4)n2)cc1: 48.4
COc1ccc(-c2nn3ncccc3c2-c2ccnc(Nc3ccc4c(c3)OCCO4)n2)cc1: 8.59
COc1ccc(CNC(=O)c2ccc(-c3cc(-c4nnc(C)o4)ccc3C)cc2)cc1: 0.26

Lab book: inhibition of FC(F)(F)c1cccc(-c2nn3ncccc3c2-c2ccnc(Nc3ccc4c(c3)OCCO4)n2)c1 noted as 47.2

Lab book: inhibition of Cc1ccc2c(-c3ccnc(Nc4ccccc4)n3)c(-c3ccc(F)cc3)nn2n1 noted as 80.7

Lab book: inhibition of Nc1ncc(-c2cccc(S(N)(=O)=O)c2)c2scc(-c3ccc(F)c(Cl)c3)c12 noted as 33.1

Lab book: inhibition of CC(=O)Nc1cccc(C#Cc2cncnc2Nc2ccc(OCc3cccc(F)c3)c(Cl)c2)c1 noted as 2.46

Lab book: inhibition of CCCN1CCC(c2ccc(Nc3nc(Nc4cc(F)ccc4C(N)=O)c4cc[nH]c4n3)c(OC)c2)CC1 noted as 65.9

Lab book: inhibition of COc1cc(/C=N/Nc2ncnc3[nH]ncc23)ccc1O noted as 3.16

Lab book: inhibition of CCn1cc(-c2ccnc3[nH]ccc23)c(-c2cccc(NC(=O)Nc3ccc(OCc4ccccc4)cc3)c2)n1 noted as 4.36

Lab book: inhibition of CCn1c(-c2nonc2N)nc2c(C#CC(C)(C)O)nc(OC[C@H](N)c3ccccc3)cc21 noted as 28.6

Lab book: inhibition of Fc1ccc(-c2nn3ccccc3c2-c2ccncc2)cc1 noted as 4.89

Lab book: inhibition of CCNC(=O)O[C@H]1CN[C@H](C#Cc2cc3ncnc(Nc4ccc(OCc5cccc(F)c5)c(Cl)c4)c3s2)C1 noted as 3.78

Lab book: inhibition of Cc1ccc(O)cc1Nc1ccnc2cc(-c3ccccn3)ccc12 noted as 18.9
